biological target: E. coli DXR (EcDXR) (Escherichia coli, UniProt P45568); experiment: biochemical; assay type: biochemical; conditions: up to 100 μM
Sequence (P45568 whole entry): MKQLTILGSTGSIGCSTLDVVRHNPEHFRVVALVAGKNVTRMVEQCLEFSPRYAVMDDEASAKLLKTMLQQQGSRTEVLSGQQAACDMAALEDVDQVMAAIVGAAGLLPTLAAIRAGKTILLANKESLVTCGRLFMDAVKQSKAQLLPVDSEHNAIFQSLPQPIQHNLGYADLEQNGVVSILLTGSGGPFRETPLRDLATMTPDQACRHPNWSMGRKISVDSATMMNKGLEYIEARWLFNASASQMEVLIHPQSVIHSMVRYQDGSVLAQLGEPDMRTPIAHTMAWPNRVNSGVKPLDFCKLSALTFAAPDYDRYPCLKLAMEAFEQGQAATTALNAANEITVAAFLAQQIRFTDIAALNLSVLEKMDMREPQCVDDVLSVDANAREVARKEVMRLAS
OUTCOME MEASURE: inhibitory activity against EcDXR (in words)

STRUCTURE STRING | REPORTED
O=P(O)(O)Cc1cccc(O)c1O | no inhibitory activity
O=c1ccc(CP(=O)(O)O)cn1O | essentially inactive
O=P(O)(O)Cc1ccc(Cl)c(Cl)c1 | essentially no activity
O=P(O)(O)c1ccccn1 | essentially no activity
O=c1cccc(CCP(=O)(O)O)[nH]1 | essentially inactive

For O=P(O)(O)CCc1ccccc1O the molecule record lists inhibitory activity against EcDXR (in words) as no inhibitory activity
